Recorded measurements of RSAI, one per entry
TARGET_OF_ASSAY: TEM-1 (Escherichia coli, UniProt P62593)
EXPERIMENT_DESCRIPTION: Competitive assay with nitrocefin (RSAI)
Type: biochemical, E. coli 2136E
Design: the beta-lactamase has to be extracted from the cells for the purpose of the present invention; made in house; host or cells: E. coli 2136E (plasmid-bearing strain; crude cell extract)
Marks after values point to notes of the source that are not given here.

CC(=O)OCC1=C(C(=O)O)N2C(=O)[C@@H](NC(=O)Cc3cccs3)[C@H]2SC1: 10

Any idea what RSAI was measured for CO[C@@]1(NC(=O)C(C(=O)O)c2ccc(O)cc2)C(=O)N2C(C(=O)O)=C(CSc3nnnn3C)CO[C@@H]21 (some centres unmarked) ?
40*

What do you have for CC1(C)S[C@@H]2[C@H](/N=C/N3CCCCCC3)C(=O)N2[C@H]1C(=O)O ?
90

Another compound to look at: Cc1nnc(SCC2=C(C(=O)O)N3C(=O)[C@@H](NC(=O)Cn4cnnn4)[C@H]3SC2)s1
30

Please give the result for CC(C)(O/N=C(\C(=O)N[C@@H]1C(=O)N2C(C(=O)[O-])=C(C[n+]3ccccc3)CS[C@H]12)c1csc(N)n1)C(=O)O too.
>400

----------
TARGET_OF_ASSAY: SHV-1 (Escherichia coli, UniProt P0AD63)
Sequence (P0AD63 22-286): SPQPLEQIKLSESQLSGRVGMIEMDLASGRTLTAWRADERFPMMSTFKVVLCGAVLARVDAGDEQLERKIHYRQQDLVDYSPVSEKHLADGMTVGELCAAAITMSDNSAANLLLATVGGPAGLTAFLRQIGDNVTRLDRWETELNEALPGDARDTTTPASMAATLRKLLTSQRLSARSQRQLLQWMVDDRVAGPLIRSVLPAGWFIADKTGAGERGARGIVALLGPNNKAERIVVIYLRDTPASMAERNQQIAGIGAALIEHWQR
EXPERIMENT_DESCRIPTION: Competitive assay with nitrocefin (RSAI)
Type: biochemical, E. coli 2008E
Set-up: the beta-lactamase has to be extracted from the cells for the purpose of the present invention; made in house; host or cells: E. coli 2008E (crude cell extract)
Reported RSAI by item:
Keep the answer to the number alone.

# count of solved cases: 5
CO[C@@]1(NC(=O)C(C(=O)O)c2ccc(O)cc2)C(=O)N2C(C(=O)O)=C(CSc3nnnn3C)CO[C@@H]21 (some centres unmarked): 280
C[C@@H](O)[C@H]1C(=O)N2C(C(=O)O)=C(SCCN=CN)C[C@H]12: 1.2
CO/N=C(\C(=O)N[C@@H]1C(=O)N2C(C(=O)O)=CCS[C@H]12)c1csc(N)n1: 1400
CO/N=C(\C(=O)N[C@@H]1C(=O)N2C(C(=O)O)=C(COC(N)=O)CS[C@H]12)c1ccco1: 20
CC1(C)S[C@@H]2[C@H](NC(=O)[C@H](N)c3ccc(O)cc3)C(=O)N2[C@H]1C(=O)O: 2.8

Endpoint output: RSAI of CC(C)(O/N=C(\C(=O)N[C@@H]1C(=O)N2C(C(=O)[O-])=C(C[n+]3ccccc3)CS[C@H]12)c1csc(N)n1)C(=O)O . Value?
1140

----------
System: HMS-1
EXPERIMENT_DESCRIPTION: Competitive assay with nitrocefin (RSAI)
Format: biochemical, E. coli 1946
Marks after values point to notes of the source that are not given here.
Measured RSAI accompanies every entry in the list below.

Below: 10 compounds and their reported RSAI.
CC(C)(O/N=C(\C(=O)N[C@@H]1C(=O)N2C(C(=O)[O-])=C(C[n+]3ccccc3)CS[C@H]12)c1csc(N)n1)C(=O)O: 10
Cn1nnnc1SCC1=C(C(=O)O)N2C(=O)[C@@H](NC(=O)[C@H](O)c3ccccc3)[C@H]2SC1: 0.5
CO[C@@]1(NC(=O)C(C(=O)O)c2ccc(O)cc2)C(=O)N2C(C(=O)O)=C(CSc3nnnn3C)CO[C@@H]21 (stereo partly shown): 0.3*
CC1(C)S[C@@H]2[C@H](NC(=O)[C@H](NC(=O)N3CCNC3=O)c3ccccc3)C(=O)N2[C@H]1C(=O)O: 0.42
CO/N=C(\C(=O)N[C@@H]1C(=O)N2C(C(=O)O)=C(CSc3nc(=O)c(=O)[nH]n3C)CS[C@H]12)c1csc(N)n1: 14
CO/N=C(\C(=O)N[C@@H]1C(=O)N2C(C(=O)O)=C(COC(C)=O)CS[C@H]12)c1csc(N)n1: 11
CC1(C)S[C@@H]2[C@H](/N=C/N3CCCCCC3)C(=O)N2[C@H]1C(=O)O: 2
C[C@@H](O)[C@H]1C(=O)N2C(C(=O)O)=C(SCCN=CN)C[C@H]12: 1.2
CC1(C)S[C@@H]2[C@H](NC(=O)Cc3ccccc3)C(=O)N2[C@H]1C(=O)O: 0.5
CC1(C)S[C@@H]2[C@H](NC(=O)C(C(=O)O)c3ccccc3)C(=O)N2[C@H]1C(=O)O (stereo partly shown): 0.09

Could you tell me which RSAI is on file for CC1(C)S[C@@H]2[C@H](NC(=O)[C@H](N)c3ccccc3)C(=O)N2[C@H]1C(=O)O ?
0.5

What do we get for CO[C@@]1(NC(=O)Cc2cccs2)C(=O)N2C(C(=O)O)=C(COC(N)=O)CS[C@@H]21 ?
60

Then what about the compound O=C(O)[C@H]1/C(=C/CO)O[C@@H]2CC(=O)N21 ?
0.006*

----------
TARGET_OF_ASSAY: TEM-2 (Escherichia coli, UniProt P62593, Q37K)
EXPERIMENT_DESCRIPTION: Competitive assay with nitrocefin (RSAI)
Format: biochemical, E. coli 1725E
RSAI strictly less than 20 = 1. Otherwise -1.

Record Cc1onc(-c2ccccc2Cl)c1C(=O)N[C@@H]1C(=O)N2[C@@H]1SC(C)(C)[C@@H]2C(=O)O : is its RSAI strictly below 20?
1

Note, next up: CC1(C)S[C@@H]2[C@H](NC(=O)C(C(=O)O)c3ccccc3)C(=O)N2[C@H]1C(=O)O (stereo partly drawn)
1

Further, for CC(=O)OCC1=C(C(=O)O)N2C(=O)[C@@H](NC(=O)Cc3cccs3)[C@H]2SC1 ?
1

Entry CC1(C)S[C@@H]2[C@H](NC(=O)[C@H](NC(=O)N3CCN(S(C)(=O)=O)C3=O)c3ccccc3)C(=O)N2[C@H]1C(=O)O please
1

And the next one, CO/N=C(\C(=O)N[C@@H]1C(=O)N2C(C(=O)O)=C(COC(C)=O)CS[C@H]12)c1csc(N)n1 ?
-1

Also Cn1nnnc1SCC1=C(C(=O)O)N2C(=O)[C@@H](NC(=O)[C@H](O)c3ccccc3)[C@H]2SC1 , if possible.
1

Further, for CC1(C)S[C@@H]2[C@H](NC(=O)[C@H](N)c3ccc(O)cc3)C(=O)N2[C@H]1C(=O)O ?
1

// same read-out, input: CC1=C(C(=O)O)N2C(=O)[C@@H](NC(=O)[C@H](N)C3=CCC=CC3)[C@H]2SC1
-1

----------
Test system: PSE-3
EXPERIMENT_DESCRIPTION: Competitive assay with nitrocefin (RSAI)
Assay type: biochemical, Ps.aerug. 1920E
Here the recorded RSAI is given for each entry.
# print the numeric value only

Cc1onc(-c2ccccc2Cl)c1C(=O)N[C@@H]1C(=O)N2[C@@H]1SC(C)(C)[C@@H]2C(=O)O [Cloxacillin]: 0.24
CC1(C)S[C@@H]2[C@H](/N=C/N3CCCCCC3)C(=O)N2[C@H]1C(=O)O [Mecil-linam, Mecillinam]: 15
CC1(C)S[C@@H]2[C@H](NC(=O)C(C(=O)O)c3ccccc3)C(=O)N2[C@H]1C(=O)O (some centres unmarked) [Carbeni-cillin, carbenicillin]: 1.35
C[C@@H](O)[C@H]1C(=O)N2C(C(=O)O)=C(SCCN=CN)C[C@H]12 [MK 0787 (N-Formimidoyl-thienamycin), N-Formimidoyl-thienamycin]: 0.5

Fill in the blank: the reported RSAI of CO[C@@]1(NC(=O)C(C(=O)O)c2ccc(O)cc2)C(=O)N2C(C(=O)O)=C(CSc3nnnn3C)CO[C@@H]21 (some centres unmarked) [Moxalactam] is ____.
7

----------
Catalogue of RSAI values
TARGET_OF_ASSAY: OXA-2 (Escherichia coli, UniProt P0A1V9)
Sequence (P0A1V9 22-275): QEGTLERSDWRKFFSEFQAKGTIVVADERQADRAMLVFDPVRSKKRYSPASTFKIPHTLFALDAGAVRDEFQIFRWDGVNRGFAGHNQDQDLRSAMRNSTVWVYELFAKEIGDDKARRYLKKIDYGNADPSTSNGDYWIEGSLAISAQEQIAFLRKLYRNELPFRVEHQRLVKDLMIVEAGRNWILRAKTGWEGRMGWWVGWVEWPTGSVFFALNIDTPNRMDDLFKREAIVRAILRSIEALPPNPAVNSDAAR
EXPERIMENT_DESCRIPTION: Competitive assay with nitrocefin (RSAI)
Type: biochemical, E. coli R46
Set-up: the beta-lactamase has to be extracted from the cells for the purpose of the present invention; made in house; host or cells: E. coli carrying R46 according to the earlier reading (crude cell extract)
Give your answer as a number; write no unit.

CC1(C)S[C@@H]2[C@H](NC(=O)[C@H](N)c3ccccc3)C(=O)N2[C@H]1C(=O)O: 10
O=C(Cc1cccs1)N[C@@H]1C(=O)N2C(C(=O)[O-])=C(C[n+]3ccccc3)CS[C@H]12: 4
CC1(C)S[C@@H]2[C@H](/N=C/N3CCCCCC3)C(=O)N2[C@H]1C(=O)O: 100
CO/N=C(\C(=O)N[C@@H]1C(=O)N2C(C(=O)O)=C(COC(C)=O)CS[C@H]12)c1csc(N)n1: 12
CC1(C)S[C@@H]2[C@H](NC(=O)[C@H](NC(=O)N3CCNC3=O)c3ccccc3)C(=O)N2[C@H]1C(=O)O: 19
CO/N=C(\C(=O)N[C@@H]1C(=O)N2C(C(=O)O)=C(CSc3nc(=O)c(=O)[nH]n3C)CS[C@H]12)c1csc(N)n1: 10

What does the record list as RSAI for Cc1nnc(SCC2=C(C(=O)O)N3C(=O)[C@@H](NC(=O)Cn4cnnn4)[C@H]3SC2)s1 ?
3.4

For CCN1CCN(C(=O)N[C@@H](C(=O)N[C@@H]2C(=O)N3C(C(=O)O)=C(CSc4nnnn4C)CS[C@H]23)c2ccc(O)cc2)C(=O)C1=O then?
2

Okay, and CO/N=C(\C(=O)N[C@@H]1C(=O)N2C(C(=O)O)=C(COC(N)=O)CS[C@H]12)c1ccco1 ?
3.6

Same thing, different molecule: CC1(C)S[C@@H]2[C@H](NC(=O)[C@H](N)c3ccc(O)cc3)C(=O)N2[C@H]1C(=O)O
8

And the next one, Cc1onc(-c2ccccc2Cl)c1C(=O)N[C@@H]1C(=O)N2[C@@H]1SC(C)(C)[C@@H]2C(=O)O ?
30

Would you mind doing Cn1nnnc1SCC1=C(C(=O)O)N2C(=O)[C@@H](NC(=O)[C@H](O)c3ccccc3)[C@H]2SC1 as well?
1.7

Could you do the same for CC(=O)OCC1=C(C(=O)O)N2C(=O)[C@@H](NC(=O)Cc3cccs3)[C@H]2SC1 , please?
0.7

Same thing, different molecule: CO[C@@]1(NC(=O)Cc2cccs2)C(=O)N2C(C(=O)O)=C(COC(N)=O)CS[C@@H]21
0.2

Also CO/N=C(\C(=O)N[C@@H]1C(=O)N2C(C(=O)O)=CCS[C@H]12)c1csc(N)n1 , if possible.
110
